TARGET_DESC: IDO1 (Homo sapiens (Human), UniProt P14902)
Sequence (P14902 whole entry): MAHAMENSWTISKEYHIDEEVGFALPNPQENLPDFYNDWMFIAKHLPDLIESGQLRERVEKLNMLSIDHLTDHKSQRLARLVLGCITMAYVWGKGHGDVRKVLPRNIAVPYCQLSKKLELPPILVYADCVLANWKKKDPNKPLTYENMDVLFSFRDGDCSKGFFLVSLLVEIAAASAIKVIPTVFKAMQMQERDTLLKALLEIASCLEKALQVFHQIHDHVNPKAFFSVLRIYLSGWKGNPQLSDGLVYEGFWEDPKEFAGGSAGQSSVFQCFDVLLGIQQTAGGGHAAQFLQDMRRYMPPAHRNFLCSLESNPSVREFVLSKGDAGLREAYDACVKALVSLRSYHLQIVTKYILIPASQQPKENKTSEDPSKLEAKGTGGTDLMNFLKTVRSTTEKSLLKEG
ASSAY_NOTES: IDO1 Cellular Assay in Hela Cells Stimulated with IFNγ
Type: cell-based
CONDITION_SUMMARY: about 48 hours, read-out: IDO1 HELA Cell Assay, IC50
ASSAY_ENDPOINT: IC50 (nM)
Respond with the bare value in nM.

// solved cases for IC50 follow
>>> test_result("CS(=N)(=O)N1CC2(CC(Nc3nonc3/C(=N\\O)N[C@@H]3Cc4ccc(F)cc43)C2)C1 (single isomer, unassigned) [Example 77]")
22.7
>>> test_result("CS(=N)(=O)CCOCCNc1nonc1/C(=N/O)N[C@H]1Cc2ccc(F)cc21 (single isomer, unassigned) [Example 47]")
196
>>> test_result("CS(=N)(=O)NCCOc1nonc1/C(=N/O)N[C@H]1Cc2ccc(F)cc21 (single isomer, unassigned) [Example 52]")
148

// query Entry CS(=N)(=O)N[C@H]1C[C@@H](Oc2nonc2/C(=N\O)N[C@@H]2Cc3ccc(F)cc32)C1 (single isomer, unassigned) [Example 61] : reported IC50 = ?
// result 128

// query Similarly, CC(O)CS(=N)(=O)CCNc1nonc1/C(=N\O)N[C@@H]1Cc2ccc(F)cc21 (single isomer, unassigned) [Example 84] ?
// result 55.2

// query Similarly, N=S1(=O)CCC1CNc1nonc1/C(=N/O)N[C@H]1Cc2ccc(F)cc21 (single isomer, unassigned) [Example 22] ?
// result 81.5

---

TARGET_DESC: IDO1 (Homo sapiens (Human))
ASSAY_NOTES: IDO1 Cellular Assay in Hela Cells Stimulated with IFNγ
Type: cell-based
CONDITION_SUMMARY: about 48 hours, read-out: IDO1 HELA Cell Assay, IC50
Rule for this label: label 1 means IC50 is less than 100 nM; label 0 means IC50 is at least 100 nM.

Recorded results for 4 molecules are shown here.
>>> assigned_class("CS(=N)(=O)CCC(O)CNc1nonc1/C(=N\\O)N[C@@H]1Cc2ccc(F)cc21 (single isomer, unassigned) [Example 81]")
"label 1"
>>> assigned_class("CS(=N)(=O)CCCCNc1nonc1/C(=N/O)N[C@H]1Cc2ccc(F)cc21 (single isomer, unassigned) [Example 38]")
"label 1"
>>> assigned_class("CS(=N)(=O)N1CCO[C@@H](CNc2nonc2/C(=N\\O)N[C@@H]2Cc3ccc(F)cc32)C1 (single isomer, unassigned) [Example 63]")
"label 1"
>>> assigned_class("CS(=N)(=O)NCCCCNc1nonc1/C(=N/O)N[C@H]1Cc2ccc(F)cc21 (some centres unmarked)")
"label 1"

// query I wonder whether CS(=N)(=O)N1CC(Oc2nonc2/C(=N/O)N[C@H]2Cc3ccc(F)cc32)C1 (single isomer, unassigned) [Example 42] has IC50 below 100 nM. Can you tell?
// result label 1

// query Similarly, CS(=N)(=O)N1CC2(CC(Nc3nonc3/C(=N\O)N[C@@H]3Cc4ccc(F)cc43)C2)C1 (single isomer, unassigned) [Example 76] ?
// result label 1

// query Similarly, CN=S(C)(=O)NCCNc1nonc1/C(=N\O)N[C@H]1Cc2ccc(F)cc21 (single isomer, unassigned) [Example 66] ?
// result label 1

// query Similarly, N=S1(=O)CC(Nc2nonc2/C(=N/O)N[C@H]2Cc3ccc(F)cc32)C1 (single isomer, unassigned) [Example 4] ?
// result label 0

// query Similarly, CS(=N)(=O)N1CC(Oc2nonc2/C(=N/O)N[C@H]2Cc3ccc(F)cc32)C1 (single isomer, unassigned) [Example 41] ?
// result label 0
